System: U2OS
Assay: Multiplex assay against U2OS
Assay type: toxicity, cell-based
Conditions: human, 48 h, 1 µM, compound concentration 1 uM, replicate 1
Classification field: class 1 = Population Apoptotic (%) at or over 50%; class 0 = Population Apoptotic (%) under 50%.

>>> category("O=C(Nc1ccc(Cl)cc1)Nc1cccc(-c2cccc(N3CCCC3)n2)c1")
"class 0"
>>> category("CCN1CCN(Cc2ccc(Nc3ncc(F)c(-c4cc(F)c5nc(C)n(C(C)C)c5c4)n3)nc2)CC1.CS(=O)(=O)O")
"class 1"
>>> category("COc1cc(N2CCN(C)CC2)ccc1Nc1ncc2c(n1)N(C)c1ccccc1C(=O)N2C")
"class 0"
>>> category("CCCn1c(=O)c2[nH]c(-c3cnn(Cc4cccc(C(F)(F)F)c4)c3)nc2n(CC)c1=O")
"class 0"
>>> category("CCn1c(=O)c(-c2ccc(-c3cncs3)cc2Cl)cc2cnc(Nc3ccc(N4CCN(C)CC4)cc3)nc21")
"class 1"
>>> category("CN1CCC(=C2c3ccccc3CC(=O)c3sccc32)CC1.O=C(O)/C=C/C(=O)O [KETOTIFEN FUMARATE]")
"class 0"
>>> category("CNc1cc(Oc2cc(C(=O)Nc3cc(N4CCN(C)CC4)cc(C(F)(F)F)c3)ccc2C)ncn1")
"class 1"
>>> category("O=C(Cc1ccc(-c2ccc(OCCN3CCOCC3)cc2)cn1)NCc1ccccc1")
"class 1"
>>> category("CCOc1cc(C(=O)N2CCC(N3CCN(C)CC3)CC2)ccc1Nc1ncc2c(n1)N(C1CCCC1)c1ccccc1C(=O)N2C")
"class 1"
>>> category("S=C(NCCCc1c[nH]cn1)NCCCN(Cc1ccc(Cl)c(Cl)c1)c1ccc(Br)cn1")
"class 0"

* * *

Test system: Fibroblast
Experiment: Multiplex assay against human fibroblast
Type: toxicity, cell-based
Conditions: 48 h, 10 µM, compound concentration 10 uM, replicate 2
Readout: Total Cell Count

>>> numeric_result("O=C(Nc1ccc(-c2ccnc(Nc3ccc(N4CCOCC4)cc3)n2)cc1)[C@@H]1CCCN1")
99
>>> numeric_result("CCCS(=O)(=O)c1nc(NC2CC2)cc(-c2ccc3c(ccn3C3CC(C)(C)NC(C)(C)C3)c2)n1")
215
>>> numeric_result("Cc1ccc(C(=O)Nc2cccc(C(F)(F)F)c2)cc1Nc1nc(-c2cccnc2)nc2c1cnn2C")
146
>>> numeric_result("CCOC(=O)c1c(C)[nH]c2ccc3c(c12)CN1CCc2cc(OC)ccc2C1O3 (stereo unspecified)")
223
>>> numeric_result("CCCn1c(=O)c2[nH]c(-c3cnn(Cc4cccc(C(F)(F)F)c4)c3)nc2n(CC)c1=O [GS 6201]")
109
>>> numeric_result("CN(C)C(=O)C(CCN1CCC(O)(c2ccc(Cl)cc2)CC1)(c1ccccc1)c1ccccc1.Cl [LOPERAMIDE HYDROCHLORIDE]")
214

* * *

Test system: U2OS
Assay: Multiplex assay against U2OS
Type: toxicity, cell-based
Details: human, 48 h, 10 µM, compound concentration 10 uM, replicate 2
// reported Population Tubulin-Different-Phenotype (%) for each item listed
Readout: Population Tubulin-Different-Phenotype (%)

>>> numeric_result("O=C(Nc1ccc(-c2ccnc(Nc3ccc(N4CCOCC4)cc3)n2)cc1)[C@@H]1CCCN1")
23
>>> numeric_result("CCOC(=O)c1c(C)[nH]c2ccc3c(c12)CN1CCc2cc(OC)ccc2C1O3 (stereo not drawn)")
95
>>> numeric_result("CCOc1cc(C(=O)N2CCC(N3CCN(C)CC3)CC2)ccc1Nc1ncc2c(n1)N(C1CCCC1)c1ccccc1C(=O)N2C")
93
